Entry source: PubChem BioAssay (NCI)

Tested on: SNB-19 CNS
Assay: NCI tumour cell line growth inhibition, 48 h

>  <molecule>
COc1ccc(NC2=C(I)C(=O)c3ncccc3C2=O)cc1

>  <unit_descriptor>
µM

>  <value_modifier>
=

>  <TGI>
3.29

$$$$
>  <molecule>
CC1=NN(C(=O)Nc2ccc(Cl)cc2)C(=O)C2CCC(=O)N12 (centres undefined)

>  <unit_descriptor>
µM

>  <value_modifier>
>

>  <TGI>
100

$$$$
>  <molecule>
O=C1C=CC(=C(c2ccccc2)c2ccc(O)cc2)C=C1

>  <unit_descriptor>
µM

>  <value_modifier>
=

>  <TGI>
31.7

$$$$
>  <molecule>
c1cc2nnsc2s1

>  <unit_descriptor>
µM

>  <value_modifier>
>

>  <TGI>
100

$$$$

* * *

The entries below are paired with their reported TGI.
System: LOX IMVI melanoma
Test: NCI tumour cell line growth inhibition, 48 h
reported_metric: TGI

>  <compound>
OCC(O)CNc1ncnc2ccccc12 (stereo not drawn)

>  <target_of_assay>
LOX IMVI melanoma

>  <reported_metric>
TGI

>  <experimental_value>
> 100 µM

$$$$
>  <compound>
O=C(O)C1(Cc2ccccc2)Cc2cc3c(cc2C1)CCC3

>  <target_of_assay>
LOX IMVI melanoma

>  <reported_metric>
TGI

>  <experimental_value>
> 100 µM

$$$$
>  <compound>
CCn1c2ccccc2c(=O)c2c(OC)ccc(OC)c21

>  <target_of_assay>
LOX IMVI melanoma

>  <reported_metric>
TGI

>  <experimental_value>
> 100 µM

$$$$

* * *

System: UO-31 renal
Assay: NCI tumour cell line growth inhibition, 48 h; in the data active = GI50 below about 0.43 µM; inactive = the rest
Labels: active, inactive

>  <molecule>
Cc1cnc2oc3ccc(O)cc3c2c1-c1ccccc1

>  <label_class>
inactive

$$$$
>  <molecule>
COc1cc([N+](=O)[O-])c(OC)cc1-c1nc2sc(C)cn2c1/C(N)=N/C(=N)N

>  <label_class>
inactive

$$$$
>  <molecule>
O=[N+]([O-])c1ccc(C(Cl)C(Cl)c2ccc(C(Cl)C(Cl)c3ccc([N+](=O)[O-])cc3[N+](=O)[O-])cc2)c([N+](=O)[O-])c1 (centres undefined)

>  <label_class>
active

$$$$
>  <molecule>
COc1ccc(C2CC(c3ccc(Nc4ccnc5cc(Cl)ccc45)cc3)=NN2C=O)cc1 (centres undefined)

>  <label_class>
inactive

$$$$

* * *

Below, each entry is listed alongside its reported TGI.
System: HOP-92 NSCLC
Test: NCI tumour cell line growth inhibition, 48 h

>  <compound>
O=C(N/C(=C\c1cccc([N+](=O)[O-])c1)c1nc2ccccc2[nH]1)c1ccccc1

>  <unit_descriptor>
µM

>  <value_modifier>
>

>  <TGI>
100

$$$$
>  <compound>
O=C(O)c1cc(=O)cc(C(=O)O)o1

>  <unit_descriptor>
µM

>  <value_modifier>
>

>  <TGI>
100

$$$$
>  <compound>
N#Cc1c(NC(=O)c2ccc(F)cc2)sc2c1CCCC2

>  <unit_descriptor>
µM

>  <value_modifier>
>

>  <TGI>
25

$$$$
>  <compound>
CC(C)[C@@](O)(c1ccc2cc(OC(F)F)c(OC(F)F)cc2c1)c1cn[nH]n1

>  <unit_descriptor>
µM

>  <value_modifier>
=

>  <TGI>
30.2

$$$$
>  <compound>
Cc1cc2nc(C=C(C(F)(F)F)C(F)(F)F)sc2cc1C

>  <unit_descriptor>
µM

>  <value_modifier>
=

>  <TGI>
16.2

$$$$
>  <compound>
COc1ccc(NC(C)=O)cc1N1C(=O)/C(=C\c2ccccc2)SC1c1cc(OC)c(OC)c(OC)c1 (centres undefined)

>  <unit_descriptor>
µM

>  <value_modifier>
>

>  <TGI>
100

$$$$
>  <compound>
CC(C)(C)c1cc(CCCCCCCC2(CCCCCCCc3cc(C(C)(C)C)cc(C(C)(C)C)c3)OC(COCCOCCCCCC#N)C(COCCOCCCCCC#N)O2)cc(C(C)(C)C)c1 (centres undefined)

>  <unit_descriptor>
µM

>  <value_modifier>
>

>  <TGI>
100

$$$$
>  <compound>
COC(=O)c1ccc(/C=C(\c2ccc([N+](=O)[O-])o2)S(=O)(=O)c2ccc(NC(C)=O)cc2)o1

>  <unit_descriptor>
µM

>  <value_modifier>
=

>  <TGI>
24

$$$$
>  <compound>
NS(=O)(=O)c1ccc(NC(=O)Cc2nc3ccccc3s2)cc1

>  <unit_descriptor>
µM

>  <value_modifier>
=

>  <TGI>
29.8

$$$$

* * *

Test system: NCI/ADR-RES ovarian
Experiment: NCI tumour cell line growth inhibition, 48 h
Reported values of TGI for individual entries
reported_metric: TGI

>  <molecule>
C#CC(=O)Nc1cccc2c1cc(C)n2-c1nc2c(c(NCc3ccccc3)n1)CCCC2

>  <reported_metric>
TGI

>  <experimental_value>
0.645 µM

$$$$
>  <molecule>
C/C=C/C=C\C=C/C(O)C(C)C(CCC(C)C1OC(=O)C=CC1C)OP(=O)(O)O (configuration not stated)

>  <reported_metric>
TGI

>  <experimental_value>
2.88 µM

$$$$
>  <molecule>
COC(=O)c1ccccc1CC1Cc2cc3c(cc2C1=O)CCC3 (configuration not stated)

>  <reported_metric>
TGI

>  <experimental_value>
21.8 µM

$$$$
>  <molecule>
COc1ccc2c(=O)cc(-c3ccc(OC)c(OC)c3OC)oc2c1

>  <reported_metric>
TGI

>  <experimental_value>
> 100 µM

$$$$
>  <molecule>
CC(=O)OCC1OC(c2c(OC(C)=O)cc(C)c3c(=O)cc(/C(C(C)=O)=C(\C)O)oc23)C(OC(C)=O)C(OC(C)=O)C1OC(C)=O (configuration not stated)

>  <reported_metric>
TGI

>  <experimental_value>
> 100 µM

$$$$
>  <molecule>
O=C(Oc1c(Cl)cc(C2(c3cc(Cl)c(OC(=O)c4ccccc4)c(Cl)c3)CCCCC2)cc1Cl)c1ccccc1

>  <reported_metric>
TGI

>  <experimental_value>
27.1 µM

$$$$
>  <molecule>
O=C1C=CC(=C(c2ccccc2)c2ccc(O)cc2)C=C1

>  <reported_metric>
TGI

>  <experimental_value>
> 100 µM

$$$$
>  <molecule>
CN(CC(=O)O)Cc1c(O)c(Cl)cc(Cl)c1Cl

>  <reported_metric>
TGI

>  <experimental_value>
> 100 µM

$$$$
>  <molecule>
CSc1nn(C)cc2ncnc1-2

>  <reported_metric>
TGI

>  <experimental_value>
> 100 µM

$$$$
>  <molecule>
CN(C)CC(=O)Nc1ccc2ncnc(Nc3ccc(Oc4cccc(C(F)(F)F)c4)c(Cl)c3)c2c1

>  <reported_metric>
TGI

>  <experimental_value>
13.2 µM

$$$$
>  <molecule>
Cc1c(/C=N/NC(=S)Nc2ccc(Cl)cc2)c(=O)n(-c2ccccc2)n1C

>  <reported_metric>
TGI

>  <experimental_value>
48.9 µM

$$$$
>  <molecule>
CCOC(=O)CCC(C(=O)OCC)n1nc2ccc(Nc3c(C)[n+]([O-])c4cc(F)c(OCC)cc4[n+]3[O-])cc2n1 (configuration not stated)

>  <reported_metric>
TGI

>  <experimental_value>
> 100 µM

$$$$

* * *

# key: entry, value: TGI
Test system: A549 NSCLC
Experiment: NCI tumour cell line growth inhibition, 48 h
reported_metric: TGI

>  <compound>
CC(=O)Nc1cccc(N2C(=O)/C(=C\c3cccc(Oc4ccccc4)c3)S(=O)(=O)C2c2ccccc2)c1 (stereo unspecified)

>  <target_of_assay>
A549 NSCLC

>  <experimental_value>
> 100 µM

$$$$
>  <compound>
N/N=C(\c1nc2ccc([N+](=O)[O-])cc2[nH]c1=O)C(O)c1ccc(Cl)c(Cl)c1 (stereo unspecified)

>  <target_of_assay>
A549 NSCLC

>  <experimental_value>
> 100 µM

$$$$
>  <compound>
C#Cc1cccc(Nc2ncnc3ccc(OCCCCNCCS(C)(=O)=O)cc23)c1

>  <target_of_assay>
A549 NSCLC

>  <experimental_value>
> 25 µM

$$$$
>  <compound>
Cn1cc(C2=C(c3cn(-c4ccccc4)c4ccccc34)C(=O)NC2=O)c2ccccc21

>  <target_of_assay>
A549 NSCLC

>  <experimental_value>
> 25 µM

$$$$
>  <compound>
CCN1c2cc(Br)cc3[nH]c(=O)n(c23)CCC1C (stereo unspecified)

>  <target_of_assay>
A549 NSCLC

>  <experimental_value>
35.1 µM

$$$$
>  <compound>
O=C(C=P(c1ccccc1)(c1ccccc1)c1ccccc1)CCl

>  <target_of_assay>
A549 NSCLC

>  <experimental_value>
8.14 µM

$$$$
>  <compound>
COc1cc(N2C(=O)[C@H](c3ccccc3)C2c2ccc(SC)cc2)cc(OC)c1OC (stereo partly specified)

>  <target_of_assay>
A549 NSCLC

>  <experimental_value>
> 100 µM

$$$$
>  <compound>
COc1ccc(-c2nc3c(nc2-c2ccc(OC)cc2)C(N)=NS(=O)(=O)N3)cc1

>  <target_of_assay>
A549 NSCLC

>  <experimental_value>
> 100 µM

$$$$
>  <compound>
CC1(C)N=C(N)N=C(N)N1c1ccc(OCCCNC(=O)Nc2cccc(S(=O)(=O)F)c2)c(Cl)c1

>  <target_of_assay>
A549 NSCLC

>  <experimental_value>
> 100 µM

$$$$
>  <compound>
OCC(O)CNc1ncnc2ccccc12 (stereo unspecified)

>  <target_of_assay>
A549 NSCLC

>  <experimental_value>
> 100 µM

$$$$
>  <compound>
C=C(C)[C@@H]1CCC2=C[C@H](C/C(C)=C\C3=CC(C)=C(O3)[C@H]1O)OC2=O

>  <target_of_assay>
A549 NSCLC

>  <experimental_value>
> 100 µM

$$$$
>  <compound>
CC1C2CC(CC2(C)O)C1(C)C (stereo unspecified)

>  <target_of_assay>
A549 NSCLC

>  <experimental_value>
> 100 µM

$$$$
>  <compound>
CCc1n[nH]c(=O)n1/N=C(\C)c1ccc([N+](=O)[O-])cc1

>  <target_of_assay>
A549 NSCLC

>  <experimental_value>
> 100 µM

$$$$
>  <compound>
CC(C)CCCC(C)[C@H]1CC[C@H]2n3c(nc4ccccc43)CCC[C@]12C (stereo partly specified)

>  <target_of_assay>
A549 NSCLC

>  <experimental_value>
50.3 µM

$$$$
>  <compound>
O=C1CC(c2ccccc2)Cc2nc3ccc(Br)cc3cc21 (stereo unspecified)

>  <target_of_assay>
A549 NSCLC

>  <experimental_value>
> 100 µM

$$$$
>  <compound>
NC(=S)N/N=C1\c2ccccc2-c2c(F)c(F)c(F)c(F)c21

>  <target_of_assay>
A549 NSCLC

>  <experimental_value>
> 58.4 µM

$$$$
>  <compound>
CC1(C)N=C(N)N=C(N)N1c1ccc(Cl)cc1

>  <target_of_assay>
A549 NSCLC

>  <experimental_value>
> 100 µM

$$$$
>  <compound>
NS(=O)(=O)c1ccc(NC(=O)Cc2nc3ccccc3s2)cc1

>  <target_of_assay>
A549 NSCLC

>  <experimental_value>
37.9 µM

$$$$
>  <compound>
O=C(Cc1ccccc1)NN1C(=O)/C(=C\c2cccc([N+](=O)[O-])c2)SC1=Nc1ccccc1

>  <target_of_assay>
A549 NSCLC

>  <experimental_value>
> 100 µM

$$$$
>  <compound>
CN/C=C(\C(=O)c1ccc(OC)c(OC)c1)c1ccc(OC)cc1

>  <target_of_assay>
A549 NSCLC

>  <experimental_value>
> 100 µM

$$$$
>  <compound>
Cc1cc(C)nc(NS(=O)(=O)c2ccc(Nc3c4ccccc4nc4c(C(=O)NC(CO)(CO)CO)cccc34)cc2)n1

>  <target_of_assay>
A549 NSCLC

>  <experimental_value>
73.2 µM

$$$$
>  <compound>
CC(NCc1c(O)ccc2ccc(=O)oc12)C(=O)O (stereo unspecified)

>  <target_of_assay>
A549 NSCLC

>  <experimental_value>
> 100 µM

$$$$
>  <compound>
O=[N+]([O-])c1cccc(-c2ncc3c(n2)-c2ccccc2C3)c1

>  <target_of_assay>
A549 NSCLC

>  <experimental_value>
> 100 µM

$$$$
>  <compound>
NS(=O)(=O)c1ccc(Nc2c3ccccc3nc3c(C(=O)N4CCN(CCO)CC4)cccc23)cc1

>  <target_of_assay>
A549 NSCLC

>  <experimental_value>
> 100 µM

$$$$
>  <compound>
CCCCCCCCCCCCCC1=C(O)C(=O)C(CC2=C(O)C(=O)C(CCCCCCCCCCCCC)=C(O)C2=O)=C(O)C1=O

>  <target_of_assay>
A549 NSCLC

>  <experimental_value>
> 100 µM

$$$$
>  <compound>
C/C(=N\OCC(O)CNCCSCc1ccccc1)c1ccccc1Cl (stereo unspecified)

>  <target_of_assay>
A549 NSCLC

>  <experimental_value>
45.6 µM

$$$$
>  <compound>
COC(=O)c1ccc(/C=C(\c2ccc([N+](=O)[O-])o2)S(=O)(=O)c2ccc(NC(C)=O)cc2)o1

>  <target_of_assay>
A549 NSCLC

>  <experimental_value>
34.1 µM

$$$$
>  <compound>
N#CC(C#N)=C1CCOc2ccc(F)cc21

>  <target_of_assay>
A549 NSCLC

>  <experimental_value>
> 100 µM

$$$$
>  <compound>
C=C1[C@H](OCC(C)C)[C@@H](O)[C@@H](OC(=O)c2cccnc2)C(C)(C)/C=C/[C@H](C)[C@H](OC(C)=O)[C@@]2(O)C[C@@](C)(OC(C)=O)[C@H](OC(=O)c3ccccc3)[C@@H]2[C@H]1OC(C)=O

>  <target_of_assay>
A549 NSCLC

>  <experimental_value>
> 5 µM

$$$$
>  <compound>
COc1cc(/C=C/c2cc(/C=C/c3ccc(O)c(OC)c3)n(C(=O)Nc3ccccc3Cl)n2)ccc1O

>  <target_of_assay>
A549 NSCLC

>  <experimental_value>
2.08 µM

$$$$
>  <compound>
CN(CC(=O)O)Cc1c(O)c(Cl)cc(Cl)c1Cl

>  <target_of_assay>
A549 NSCLC

>  <experimental_value>
> 100 µM

$$$$
